Hello, the source for this data is patent US7244837B2, in case you need it.

Biological target: OA/TAT (octopamine/tyramine transporter) (Trichoplusia ni, UniProt Q95VZ4, D309A/R312W)
Sequence (Q95VZ4 75-744 D309A/R312W): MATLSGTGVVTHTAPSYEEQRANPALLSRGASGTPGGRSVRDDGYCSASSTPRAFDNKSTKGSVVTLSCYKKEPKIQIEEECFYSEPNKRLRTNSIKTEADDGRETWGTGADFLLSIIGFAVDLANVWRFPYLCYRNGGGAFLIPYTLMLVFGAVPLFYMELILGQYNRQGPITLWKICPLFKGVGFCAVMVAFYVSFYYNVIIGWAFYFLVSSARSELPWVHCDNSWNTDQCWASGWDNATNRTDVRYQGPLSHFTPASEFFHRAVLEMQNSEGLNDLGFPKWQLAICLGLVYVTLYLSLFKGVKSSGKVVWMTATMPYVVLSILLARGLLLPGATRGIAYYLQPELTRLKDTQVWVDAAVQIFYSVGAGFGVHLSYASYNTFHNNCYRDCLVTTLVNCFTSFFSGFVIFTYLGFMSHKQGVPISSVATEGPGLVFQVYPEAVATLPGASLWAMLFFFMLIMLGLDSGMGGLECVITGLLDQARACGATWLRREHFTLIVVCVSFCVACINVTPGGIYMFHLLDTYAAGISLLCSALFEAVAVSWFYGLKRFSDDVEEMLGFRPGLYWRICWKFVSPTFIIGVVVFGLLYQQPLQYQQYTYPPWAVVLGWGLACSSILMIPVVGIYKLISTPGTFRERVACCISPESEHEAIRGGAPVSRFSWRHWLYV
Experiment: 3H-dopamine uptake by OA/TAT expressed in baculovirus-infected Sf21 insect cells (transport assay)
Type: cell-based
Conditions: read-out: % Inhibition of 3H-Dopamine uptake by OA/TAT
Provide the recorded inhibition at 10 µM for the entries that follow.
# output: bare number, implied unit %

Task: # return inhibition at 10 µM of NCCc1ccc(O)c(O)c1 [Dopamine, 3-Hydroxytyramine] (system: OA/TAT (octopamine/tyramine transporter) (Trichoplusia ni, UniProt Q95VZ4, D309A/R312W))
Output: 70.2

Task: Enter recorded inhibition at 10 µM with OA/TAT (octopamine/tyramine transporter) (Trichoplusia ni, UniProt Q95VZ4, D309A/R312W) for NCCc1c[nH]c2ccccc12 here.
Output: 9.57

Task: Report measured inhibition at 10 µM on OA/TAT (octopamine/tyramine transporter) (Trichoplusia ni, UniProt Q95VZ4, D309A/R312W); entry: NCC(O)c1ccc(O)cc1 (racemic)
Output: 80.9

Task: For OA/TAT (octopamine/tyramine transporter) (Trichoplusia ni, UniProt Q95VZ4, D309A/R312W), give the measured inhibition at 10 µM of the entry NCCc1c[nH]c2ccc(O)cc12 [Serotonin, 5-Hydroxytryptamine]
Output: -3.6

Task: Report inhibition at 10 µM from OA/TAT (octopamine/tyramine transporter) (Trichoplusia ni, UniProt Q95VZ4, D309A/R312W) testing of NCCc1c[nH]cn1
Output: -1.81

Task: State the measured inhibition at 10 µM (OA/TAT (octopamine/tyramine transporter) (Trichoplusia ni, UniProt Q95VZ4, D309A/R312W)) of NC[C@H](O)c1ccc(O)c(O)c1 [Norepinephrine, (−)-Arterenol]
Output: 27.2

Task: Give inhibition at 10 µM; test system OA/TAT (octopamine/tyramine transporter) (Trichoplusia ni, UniProt Q95VZ4, D309A/R312W); molecule NCCc1ccc(O)cc1
Output: 96.5

Task: Lab note: record inhibition at 10 µM of CNCC(O)c1ccc(O)cc1 (racemic) [Synephrine, (±)-Synephrine] tested on OA/TAT (octopamine/tyramine transporter) (Trichoplusia ni, UniProt Q95VZ4, D309A/R312W).
Output: 6.39

Task: Would you please give the reported inhibition at 10 µM of Fc1ccc(C(OCCN2CCN(CCCc3ccccc3)CC2)c2ccc(F)cc2)cc1 with OA/TAT (octopamine/tyramine transporter) (Trichoplusia ni, UniProt Q95VZ4, D309A/R312W)?
Output: -10

Task: Print OA/TAT (octopamine/tyramine transporter) (Trichoplusia ni, UniProt Q95VZ4, D309A/R312W) inhibition at 10 µM for CN[C@@H](C)[C@@H](O)c1ccccc1 [Pseudoephedrine, (−)-ψ-Ephedrine] .
Output: 1.31

---

For each entry below, report its Ki value.
Molecular target: OA/TAT (octopamine/tyramine transporter) (Trichoplusia ni, UniProt Q95VZ4, D309A/R312W)
Sequence (Q95VZ4 75-744 D309A/R312W): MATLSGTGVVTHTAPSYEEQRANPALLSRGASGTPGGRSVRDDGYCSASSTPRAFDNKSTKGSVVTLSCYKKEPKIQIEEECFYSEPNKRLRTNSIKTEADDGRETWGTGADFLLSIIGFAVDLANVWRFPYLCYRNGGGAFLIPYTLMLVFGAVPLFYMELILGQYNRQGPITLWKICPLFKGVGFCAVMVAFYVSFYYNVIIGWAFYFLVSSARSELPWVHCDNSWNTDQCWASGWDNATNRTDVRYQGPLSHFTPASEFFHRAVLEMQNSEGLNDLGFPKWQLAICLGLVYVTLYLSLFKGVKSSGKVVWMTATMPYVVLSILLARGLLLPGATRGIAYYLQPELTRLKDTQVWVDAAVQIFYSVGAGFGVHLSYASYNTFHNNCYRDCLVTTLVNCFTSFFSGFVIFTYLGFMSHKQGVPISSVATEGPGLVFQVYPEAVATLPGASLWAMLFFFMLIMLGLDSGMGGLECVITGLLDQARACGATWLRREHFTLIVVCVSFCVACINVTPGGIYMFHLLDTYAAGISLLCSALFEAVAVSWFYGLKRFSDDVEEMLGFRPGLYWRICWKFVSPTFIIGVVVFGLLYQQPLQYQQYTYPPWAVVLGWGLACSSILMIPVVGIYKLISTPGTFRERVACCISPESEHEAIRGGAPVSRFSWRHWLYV
Experiment: 3H-dopamine uptake by OA/TAT expressed in baculovirus-infected Sf21 insect cells (transport assay)
Report the value in nM with no unit label.

Task: Quote Ki reported for NCCc1ccc(O)c(O)c1 [Dopamine, 3-Hydroxytyramine] please.
Output: 3720

Task: Tell me its Ki given NCCc1ccc(O)cc1 as the entry.
Output: 350

Task: Tell me Ki reported for NCC(O)c1ccc(O)cc1 (racemic)
Output: 1740

Task: Read off the recorded Ki for NC[C@H](O)c1ccc(O)c(O)c1 [Norepinephrine, (−)-Arterenol]
Output: 20000
